target: Receptor tyrosine-protein kinase erbB-2 (Homo sapiens) (UniProt P04626); assay: Her2 expression decrease, cell viability multiplex – SKBR3 breast tumor cells, AlphaScreen, ATP viability, primary screen (AID 461); details: 18-24 h, at 10 µM, hits give low values;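 also: lower value means less Her2 protein in the cells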
Sequence (P04626 whole entry, looked up): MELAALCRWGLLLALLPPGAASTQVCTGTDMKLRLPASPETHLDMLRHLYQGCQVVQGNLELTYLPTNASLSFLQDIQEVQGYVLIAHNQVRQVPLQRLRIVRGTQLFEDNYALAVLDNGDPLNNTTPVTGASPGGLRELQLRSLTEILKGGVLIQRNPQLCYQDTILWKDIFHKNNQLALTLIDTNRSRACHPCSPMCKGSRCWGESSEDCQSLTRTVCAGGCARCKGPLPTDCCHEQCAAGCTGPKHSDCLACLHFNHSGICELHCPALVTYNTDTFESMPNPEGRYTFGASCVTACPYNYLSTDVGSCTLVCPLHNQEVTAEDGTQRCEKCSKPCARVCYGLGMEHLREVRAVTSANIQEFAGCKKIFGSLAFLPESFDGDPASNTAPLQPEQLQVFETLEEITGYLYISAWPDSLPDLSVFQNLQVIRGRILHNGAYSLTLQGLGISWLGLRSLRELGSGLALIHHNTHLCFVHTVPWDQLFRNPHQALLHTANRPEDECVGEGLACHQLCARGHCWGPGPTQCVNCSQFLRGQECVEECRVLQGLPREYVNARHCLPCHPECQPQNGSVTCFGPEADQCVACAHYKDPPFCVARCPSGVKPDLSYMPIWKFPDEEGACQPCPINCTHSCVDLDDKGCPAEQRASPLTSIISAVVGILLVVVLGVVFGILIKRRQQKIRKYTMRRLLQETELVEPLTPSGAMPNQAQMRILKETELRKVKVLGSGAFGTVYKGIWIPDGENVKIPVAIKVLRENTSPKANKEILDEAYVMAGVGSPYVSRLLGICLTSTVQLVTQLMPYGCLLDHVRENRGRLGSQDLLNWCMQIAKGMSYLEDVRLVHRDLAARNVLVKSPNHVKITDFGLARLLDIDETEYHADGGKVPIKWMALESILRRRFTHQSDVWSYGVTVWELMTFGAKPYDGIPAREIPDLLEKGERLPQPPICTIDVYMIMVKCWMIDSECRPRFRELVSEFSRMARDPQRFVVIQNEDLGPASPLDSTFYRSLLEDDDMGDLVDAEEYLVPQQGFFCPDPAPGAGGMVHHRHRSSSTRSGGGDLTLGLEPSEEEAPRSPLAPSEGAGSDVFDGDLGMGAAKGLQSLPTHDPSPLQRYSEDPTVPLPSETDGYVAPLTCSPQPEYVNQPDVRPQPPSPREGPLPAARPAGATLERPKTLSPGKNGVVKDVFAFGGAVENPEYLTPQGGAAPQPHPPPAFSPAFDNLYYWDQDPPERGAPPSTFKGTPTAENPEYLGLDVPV
Listed here: items and their measured Her2 level.
Give the value, in units of %, as a plain number.

Consider the reported Her2 level for these molecules:
| molecule | unit_label | Her2 level |
| --- | --- | --- |
| CCN(CC)C(=O)COC(=O)c1ccc(O)cc1 | % | 102 |
| COc1cccc(CNC(=O)Cn2c(=O)oc3ccccc32)c1OC | % | 99 |
| COc1ccc(-n2c(Cc3cccn3C)nnc2SCC(=O)Nc2ccccc2)cc1 | % | 104 |
| COC(=O)C1=C(C)NC2=C(C(=O)CCC2)C1c1coc2ccccc2c1=O (stereo unspecified) | % | 81 |
| CCOC(=O)C1CCCN(C(=O)c2ccc(CS(=O)(=O)c3ccc(Br)cc3)o2)C1 (stereo unspecified) | % | 102 |
| CCOC(=O)c1ccc(NCc2nc3ccccc3[nH]2)cc1 | % | 97 |

Moving on to the next molecule.
Summary for this molecule, CCOc1ccc(-c2cc(CCCC(=O)N3CCN(c4ccc(OC)cc4)CC3)no2)cc1 : Her2 level is 104

----------
Listed here: items and their measured Her2 level.
biological target: Receptor tyrosine-protein kinase erbB-2 (Homo sapiens) (UniProt P04626); assay: Her2 expression decrease, cell viability multiplex – SKBR3 breast tumor cells, AlphaScreen, ATP viability, primary screen (AID 461); settings: 18-24 h, at 10 µM, hits give low values;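 also: lower value means less Her2 protein in the cells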
Give the value, in units of %, as a plain number.

Consider the reported Her2 level for these molecules:
| molecule | attribute_measured | meas_value |
| --- | --- | --- |
| CCn1cc(C(=O)NCc2ccccc2OC)c(=O)c2cc(S(=O)(=O)N(C)C)ccc21 | Her2 level | 89 |
| CCC(C)NC(=O)CS(=O)(=O)Cc1nc(-c2cccc(OC)c2)oc1C (stereo not given) | Her2 level | 98 |
| CCN(CC)c1ccc(NC(=O)c2nc3nc(C)cc(C(F)F)n3n2)cc1 | Her2 level | 102 |
| CC1CCN(C(=O)CSc2nc3c(cnn3-c3ccccc3)c(=O)[nH]2)CC1 | Her2 level | 92 |

Moving on to the next molecule.
Summary for this molecule, Clc1cccc(N2CCN(Cc3nc(-c4ccccc4)no3)CC2)c1 : Her2 level is 96

----------
Listed here: items and their measured differential viability (reversal).
experiment: MRP1 drug-resistance reversers in H69AR cells – cell-based, doxorubicin co-treatment, pilot screen (AID 601); settings: H69AR cells + 2 uM doxorubicin, CellTiter-Glo, 72 h; at 10 µM; hits give high values
Give the value, in units of %, as a plain number.

Consider the reported differential viability (reversal) for these compounds:
| compound | differential viability (reversal) / % |
| --- | --- |
| COc1ccc(C2C(C(=O)Nc3cccnc3)=C(C)Nc3nc(-c4cccs4)nn32)cc1OC (stereo not given) | 12.1 |
| Cc1cccc(-n2ncc3c(NCc4cccnc4)ncnc32)c1 | -3.23 |
| Cc1ccc2[nH]c(=O)c3cc(C(=O)NCCN4CCN(C)CC4)sc3c2c1 | 9.29 |

Moving on to the next compound.
Summary for this compound, COC(=O)c1cc(-c2ccccc2)sc1NC(=O)c1cc(C)on1 : differential viability (reversal) is 5.14
